- Test system: M14
- assay notes: NCI tumour cell line growth inhibition, 48 h
Active and inactive are the calls of the source. Rule as the data show it: active = GI50 up to about 1.1 µM and inactive = higher.
measurement name: GI50

molecule: Cc1cc2c(c(O)c1-c1c(C)cc(O)c3c1C(=O)C=CC3=O)C(=O)C=CC2=O
result: 2.18 µM (inactive)

Proceeding to the next molecule to report its GI50.
QUERY: Return GI50 measured with M14 given this molecule: `CCOC(=O)c1sc2nc(SC)nc(Nc3ccc4c(c3)OCCO4)c2c1N`
RESULT: 11 µM (inactive)

====

- System: UACC-257
- assay notes: NCI tumour cell line growth inhibition, 48 h
Activity calls are given as the source filed them. No stated cut-off is given here; in the data, active = GI50 up to about 1.1 µM and inactive = higher.
GI50 listing for selected compounds.

compound: [O-][Cl+3]([O-])([O-])[O-].[O-][Cl+3]([O-])([O-])[O-].c1ccn2c(N3CCCC3)[n+]3c4ccccc4n4c(N5CCCC5)[n+]5ccccc5c4c3c2c1
GI50: 34.6 µM (inactive)
--
compound: CC(=O)OC(CC(C)C)P1(=O)N(CC(C)(C)C)[C@@H]2CCCC[C@H]2N1CC(C)(C)C (some centres not stated)
GI50: 8.41 µM (inactive)
--
compound: C=CO/N=[N+](\[O-])N(CC)CC
GI50: > 100 µM (inactive)
--
compound: CSC1=C(C#N)C(=O)N(c2ccc(C)cc2)C(=O)C1C#N (configuration not stated)
GI50: > 100 µM (inactive)
--
compound: CN1Cc2ccccc2/C=C\c2ccccc21
GI50: > 100 µM (inactive)
--
compound: Cc1nc2ccc(S(=O)(=O)Nc3ccccn3)cc2c(=O)n1NS(=O)(=O)c1ccccn1
GI50: > 100 µM (inactive)

Kindly review the next compound as well.
QUERY: Which GI50 is listed for `O=[N+]([O-])c1ccc2nc(-c3ccccn3)c(-c3ccccn3)nc2c1` ?
RESULT: 98.4 µM (inactive)
